Target: recombinant human AChE (Homo sapiens)
Assay: Reversible inhibition of AChE, Ellman method, enzyme-inhibitor dissociation constants
Settings: ± standard error; ATCh substrate, 25 °C, pH 7.4
quantity.kind: Ki (µM)
One number for each entry, in µM.

Below, 5 compounds whose answers are already recorded.
CCC1C[N+]2(Cc3ccc(C(F)(F)F)cc3)CCC1C[C@H]2[C@H](O)c1ccnc2ccccc12 (some centres unmarked)
15
CCC1C[N+]2(Cc3ccc(F)cc3)CCC1C[C@@H]2[C@@H](O)c1ccnc2ccccc12 (some centres unmarked)
64
C=CC1C[N+]2(Cc3ccc(F)cc3)CCC1C[C@@H]2[C@@H](O)c1ccnc2ccccc12 (some centres unmarked)
3.9
C=CC1C[N+]2(Cc3cccc(OC(F)(F)F)c3)CCC1C[C@H]2[C@H](O)c1ccnc2ccccc12 (some centres unmarked)
8.2
C=CC1C[N+]2(Cc3ccc(F)cc3F)CCC1C[C@H]2[C@H](O)c1ccnc2ccccc12 (some centres unmarked)
6.4

Please look at the items below and tell me Ki for each one, in order.
1. CCC1C[N+]2(Cc3ccc(F)cc3)CCC1C[C@H]2[C@H](O)c1ccnc2ccccc12 (some centres unmarked)
2. C=CC1C[N+]2(Cc3cccc(F)c3F)CCC1C[C@@H]2[C@@H](O)c1ccnc2ccccc12 (some centres unmarked)
3. CCC1C[N+]2(Cc3ccc(OC(F)(F)F)cc3)CCC1C[C@@H]2[C@@H](O)c1ccnc2ccccc12 (some centres unmarked)

Result ::
31
46
22

* * *

Molecular target: UniProtKB P06276
Test: Reversible inhibition of BChE, Ellman method, enzyme-inhibitor dissociation constants
Format: biochemical
Settings: ± standard error; ATCh substrate, 25 °C, pH 7.4
Method: As a source of BChE, a purified human BChE, and as AChE, a recombinant human AChE was used, both enzymes kindly provided by Dr. F. Nachon (Département de Toxicologie, Armed Forces Biomedical Research Institute, France). […] Enzyme activities were measured spectrophotometrically by the Ellman method at […] using 0.30 mM DTNB as thiol reagent, ATCh as substrate and water in 0.1 M phosphate buffer, pH 7.4. […] Measurements were done at 25 °C on a Tecan Infinite M200Pro plate reader (Austria). […]
quantity.kind: Ki (nM)
Numbers only, in nM.

Below, 3 molecules whose answers are already recorded.
C=CC1C[N+]2(Cc3ccccc3F)CCC1C[C@@H]2[C@@H](O)c1ccnc2ccccc12 (some centres unmarked) [CN 2F]
2400
C=CC1C[N+]2(Cc3ccc(F)cc3)CCC1C[C@H]2[C@H](O)c1ccnc2ccccc12 (some centres unmarked) [CD 4F]
1500
C=CC1C[N+]2(Cc3cc(F)cc(F)c3)CCC1C[C@@H]2[C@@H](O)c1ccnc2ccccc12 (some centres unmarked) [CN 3,5F]
6300

Please look at the items below and tell me Ki for each one, in order.
1. C=CC1C[N+]2(Cc3cccc(F)c3)CCC1C[C@H]2[C@H](O)c1ccnc2ccccc12 (some centres unmarked) [CD 3F]
2. C=CC1C[N+]2(Cc3ccc(Br)cc3F)CCC1C[C@@H]2[C@@H](O)c1ccnc2ccccc12 (some centres unmarked) [CN 2F-4Br]
3. C=CC1C[N+]2(Cc3c(F)cccc3Cl)CCC1C[C@@H]2[C@@H](O)c1ccnc2ccccc12 (some centres unmarked) [CN 2Cl-6F]
4. C=CC1C[N+]2(Cc3ccc(F)cc3F)CCC1C[C@@H]2[C@@H](O)c1ccnc2ccccc12 (some centres unmarked) [CN 2,4F]
5. C=CC1C[N+]2(Cc3ccccc3)CCC1C[C@H]2[C@H](O)c1ccnc2ccccc12 (some centres unmarked) [CD Bzl]

Result ::
1: 75; 2: 5500; 3: 1200; 4: 6000; 5: 75

* * *

Assign pKi to each entry below.
Biological target: purified human BChE (Homo sapiens)
Sequence (P06276 29-602): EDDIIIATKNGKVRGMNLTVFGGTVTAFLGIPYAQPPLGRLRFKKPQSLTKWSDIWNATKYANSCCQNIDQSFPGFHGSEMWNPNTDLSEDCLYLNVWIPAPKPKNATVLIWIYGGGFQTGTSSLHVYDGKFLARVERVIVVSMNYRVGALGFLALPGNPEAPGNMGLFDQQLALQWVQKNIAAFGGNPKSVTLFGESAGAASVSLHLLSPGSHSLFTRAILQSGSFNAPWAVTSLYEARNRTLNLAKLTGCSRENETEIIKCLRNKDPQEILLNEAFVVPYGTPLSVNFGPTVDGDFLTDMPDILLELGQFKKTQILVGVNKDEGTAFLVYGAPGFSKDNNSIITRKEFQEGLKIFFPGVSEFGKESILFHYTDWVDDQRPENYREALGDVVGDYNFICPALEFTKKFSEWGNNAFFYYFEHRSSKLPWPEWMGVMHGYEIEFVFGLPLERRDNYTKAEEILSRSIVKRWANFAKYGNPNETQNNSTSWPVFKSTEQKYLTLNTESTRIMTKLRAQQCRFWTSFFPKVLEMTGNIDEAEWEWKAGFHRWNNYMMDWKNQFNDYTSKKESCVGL
Experiment: Reversible inhibition of BChE, Ellman method, enzyme-inhibitor dissociation constants
Format: biochemical
Settings: stated in text as around
pKi: −log10 of the molar value.

C=CC1C[N+]2(Cc3cc(F)cc(F)c3)CCC1C[C@H]2[C@H](O)c1ccnc2ccccc12 (some centres unmarked) [CD 3,5F]
~7.12

From here, focus on the item given below.
Query :: Find the recorded pKi belonging to C=CC1C[N+]2(Cc3cccc(F)c3)CCC1C[C@H]2[C@H](O)c1ccnc2ccccc12 (some centres unmarked) [CD 3F] and report it.
Result :: ~7.12

* * *

Biological target: recombinant human AChE (Homo sapiens)
Experiment: Reversible inhibition of AChE, Ellman method, enzyme-inhibitor dissociation constants
Details: ± standard error; ATCh substrate, 25 °C, pH 7.4
Assign log10(Ki) to each entry below.
Record value = log10 of Ki given in µM.

Below, 5 compounds whose answers are already recorded.
C=CC1C[N+]2(Cc3ccc(F)cc3)CCC1C[C@H]2[C@H](O)c1ccnc2ccccc12 (stereo partly shown)
1.84
C=CC1C[N+]2(Cc3cccc(OC(F)(F)F)c3)CCC1C[C@@H]2[C@@H](O)c1ccnc2ccccc12 (stereo partly shown)
1.61
C=CC1C[N+]2(Cc3ccc(Br)cc3F)CCC1C[C@H]2[C@H](O)c1ccnc2ccccc12 (stereo partly shown)
0.86
C=CC1C[N+]2(Cc3ccc(OC(F)(F)F)cc3)CCC1C[C@H]2[C@H](O)c1ccnc2ccccc12 (stereo partly shown)
0.86
C=CC1C[N+]2(Cc3ccccc3)CCC1C[C@H]2[C@H](O)c1ccnc2ccccc12 (stereo partly shown)
1.18

Please look at the items below and tell me log10(Ki) for each one, in order.
1. CCC1C[N+]2(Cc3ccccc3)CCC1C[C@H]2[C@H](O)c1ccnc2ccccc12 (stereo partly shown)
2. C=CC1C[N+]2(Cc3c(F)cccc3C(F)(F)F)CCC1C[C@H]2[C@H](O)c1ccnc2ccccc12 (stereo partly shown)

Result ::
0.68
1.54

* * *

Assign pKi to each entry below.
Target: purified human BChE (Homo sapiens)
Assay: Reversible inhibition of BChE, Ellman method, enzyme-inhibitor dissociation constants
Assay type: biochemical
Details: ± standard error; ATCh substrate, 25 °C, pH 7.4
Numbers only, as −log10 of the molar value.

Below, 7 compounds whose answers are already recorded.
C=CC1C[N+]2(Cc3c(F)cccc3F)CCC1C[C@@H]2[C@@H](O)c1ccnc2ccccc12 (some centres unmarked)
5.28
C=CC1C[N+]2(Cc3cccc(F)c3F)CCC1C[C@H]2[C@H](O)c1ccnc2ccccc12 (some centres unmarked)
6.12
CC[C@H]1CN2CC[C@H]1C[C@@H]2[C@@H](O)c1ccnc2ccccc12 [DHCN, 10,11-dihydrocinchonine]
5.92
CCC1C[N+]2(Cc3cccc(C(F)(F)F)c3)CCC1C[C@@H]2[C@@H](O)c1ccnc2ccccc12 (some centres unmarked)
5.92
C=CC1C[N+]2(Cc3ccc(F)cc3)CCC1C[C@@H]2[C@@H](O)c1ccnc2ccccc12 (some centres unmarked)
5.59
CCC1C[N+]2(Cc3cccc(OC(F)(F)F)c3)CCC1C[C@H]2[C@H](O)c1ccnc2ccccc12 (some centres unmarked)
5.17
C=CC1C[N+]2(Cc3cccc(OC(F)(F)F)c3)CCC1C[C@H]2[C@H](O)c1ccnc2ccccc12 (some centres unmarked)
5.13

From here, focus on the item given below.
Query :: Find the recorded pKi belonging to C=CC1C[N+]2(Cc3ccc(OC(F)(F)F)cc3)CCC1C[C@@H]2[C@@H](O)c1ccnc2ccccc12 (some centres unmarked) and report it.
Result :: 5.11

* * *

Biological target: recombinant human AChE (Homo sapiens, UniProt P22303)
Sequence (P22303 32-614): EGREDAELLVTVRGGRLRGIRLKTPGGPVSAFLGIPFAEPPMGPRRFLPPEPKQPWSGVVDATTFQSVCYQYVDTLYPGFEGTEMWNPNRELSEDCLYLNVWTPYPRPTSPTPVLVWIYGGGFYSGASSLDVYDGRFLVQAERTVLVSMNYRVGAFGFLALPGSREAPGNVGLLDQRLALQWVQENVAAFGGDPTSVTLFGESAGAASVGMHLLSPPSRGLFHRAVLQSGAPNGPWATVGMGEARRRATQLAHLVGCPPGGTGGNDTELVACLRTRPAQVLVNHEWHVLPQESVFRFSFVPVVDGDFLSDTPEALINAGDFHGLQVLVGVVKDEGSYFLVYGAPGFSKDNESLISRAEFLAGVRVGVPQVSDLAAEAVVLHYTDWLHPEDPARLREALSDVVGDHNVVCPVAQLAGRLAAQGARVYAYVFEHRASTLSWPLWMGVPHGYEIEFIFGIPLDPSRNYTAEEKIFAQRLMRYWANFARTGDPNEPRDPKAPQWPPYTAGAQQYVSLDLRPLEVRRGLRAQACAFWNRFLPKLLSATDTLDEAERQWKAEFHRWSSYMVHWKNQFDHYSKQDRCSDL
Experiment: Reversible inhibition of AChE, Ellman method, enzyme-inhibitor dissociation constants
Conditions: ± standard error; ATCh substrate, 25 °C, pH 7.4
quantity.kind: Ki
Kindly report the value followed by its unit.

C=CC1C[N+]2(Cc3ccc(OC(F)(F)F)cc3)CCC1C[C@@H]2[C@@H](O)c1ccnc2ccccc12 (stereo partly shown)
19 µM
C=CC1C[N+]2(Cc3cc(F)cc(F)c3)CCC1C[C@H]2[C@H](O)c1ccnc2ccccc12 (stereo partly shown)
10 µM
C=CC1C[N+]2(Cc3ccccc3)CCC1C[C@@H]2[C@@H](O)c1ccnc2ccccc12 (stereo partly shown)
121 µM
C=CC1C[N+]2(Cc3ccccc3F)CCC1C[C@@H]2[C@@H](O)c1ccnc2ccccc12 (stereo partly shown)
80 µM
C=CC1C[N+]2(Cc3c(F)cccc3Cl)CCC1C[C@H]2[C@H](O)c1ccnc2ccccc12 (stereo partly shown)
9.9 µM
CCC1CN2CCC1CC2C(O)c1ccnc2ccccc12 (stereo not shown) [DHCD, 10,11-dihydrocinchonidine]
206 µM

Please look at the items below and tell me Ki for each one, in order.
1. C=CC1C[N+]2(Cc3c(F)cccc3F)CCC1C[C@@H]2[C@@H](O)c1ccnc2ccccc12 (stereo partly shown)
2. C=CC1C[N+]2(Cc3ccc(F)cc3F)CCC1C[C@@H]2[C@@H](O)c1ccnc2ccccc12 (stereo partly shown)
3. C=CC1C[N+]2(Cc3cccc(C(F)(F)F)c3)CCC1C[C@@H]2[C@@H](O)c1ccnc2ccccc12 (stereo partly shown)
4. CCC1C[N+]2(Cc3cccc(F)c3)CCC1C[C@H]2[C@H](O)c1ccnc2ccccc12 (stereo partly shown)
5. CCC1C[N+]2(Cc3cccc(C(F)(F)F)c3)CCC1C[C@H]2[C@H](O)c1ccnc2ccccc12 (stereo partly shown)
6. C=CC1C[N+]2(Cc3cccc(F)c3)CCC1C[C@H]2[C@H](O)c1ccnc2ccccc12 (stereo partly shown)
7. C=CC1C[N+]2(Cc3ccc(C(F)(F)F)cc3)CCC1C[C@H]2[C@H](O)c1ccnc2ccccc12 (stereo partly shown)
8. CCC1C[N+]2(Cc3ccc(C(F)(F)F)cc3)CCC1C[C@@H]2[C@@H](O)c1ccnc2ccccc12 (stereo partly shown)

Result ::
["30 µM", "27 µM", "59 µM", "27 µM", "25 µM", "40 µM", "21 µM", "18 µM"]

Please look at the items below and tell me Ki for each one, in order.
1. C=CC1C[N+]2(Cc3ccc(Br)cc3F)CCC1C[C@@H]2[C@@H](O)c1ccnc2ccccc12 (stereo partly shown)
2. CCC1C[N+]2(Cc3cccc(OC(F)(F)F)c3)CCC1C[C@@H]2[C@@H](O)c1ccnc2ccccc12 (stereo partly shown)

Result ::
1: 16 µM; 2: 68 µM

meta.source: paper PMC9610298
